Target: T1, leptin receptor (ObR) (UniProt P48357 22-1165, limits assumed)
T1 sequence (looked up): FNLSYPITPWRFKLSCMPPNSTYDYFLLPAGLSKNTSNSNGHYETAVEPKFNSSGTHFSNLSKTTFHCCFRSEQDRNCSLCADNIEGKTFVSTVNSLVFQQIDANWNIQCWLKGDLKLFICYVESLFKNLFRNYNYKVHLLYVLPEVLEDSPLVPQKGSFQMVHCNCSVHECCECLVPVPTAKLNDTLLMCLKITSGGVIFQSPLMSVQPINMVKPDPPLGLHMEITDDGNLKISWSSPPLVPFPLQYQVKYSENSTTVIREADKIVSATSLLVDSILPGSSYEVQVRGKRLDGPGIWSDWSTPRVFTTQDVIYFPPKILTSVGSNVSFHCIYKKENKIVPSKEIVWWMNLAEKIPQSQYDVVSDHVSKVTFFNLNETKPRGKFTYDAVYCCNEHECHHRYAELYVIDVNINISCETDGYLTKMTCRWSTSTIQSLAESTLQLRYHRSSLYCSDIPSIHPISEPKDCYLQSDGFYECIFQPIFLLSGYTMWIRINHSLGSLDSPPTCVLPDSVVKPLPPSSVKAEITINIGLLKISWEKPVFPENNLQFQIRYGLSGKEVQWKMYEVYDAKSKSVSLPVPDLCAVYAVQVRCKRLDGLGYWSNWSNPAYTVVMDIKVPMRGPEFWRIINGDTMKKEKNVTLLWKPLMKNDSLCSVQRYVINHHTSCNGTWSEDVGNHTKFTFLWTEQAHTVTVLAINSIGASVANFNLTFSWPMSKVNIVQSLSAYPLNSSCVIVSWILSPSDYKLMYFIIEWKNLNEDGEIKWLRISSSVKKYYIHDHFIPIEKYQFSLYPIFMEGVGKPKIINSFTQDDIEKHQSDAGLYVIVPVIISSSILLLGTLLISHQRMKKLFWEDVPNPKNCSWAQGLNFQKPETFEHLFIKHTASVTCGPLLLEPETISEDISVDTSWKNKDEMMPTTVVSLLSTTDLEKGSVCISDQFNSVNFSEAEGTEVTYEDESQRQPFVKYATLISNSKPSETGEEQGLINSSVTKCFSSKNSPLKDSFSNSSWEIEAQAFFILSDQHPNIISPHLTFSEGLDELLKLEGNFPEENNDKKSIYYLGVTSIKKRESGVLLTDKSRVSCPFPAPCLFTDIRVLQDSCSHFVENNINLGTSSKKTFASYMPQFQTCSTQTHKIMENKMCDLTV
Experiment: cell-based or functional assay
Where no end group is shown, it is not given here.
experimental endpoint: IC50 (half maximal inhibitory concentration), inhibition of leptin-induced cell growth

Form field: reported IC50 (half maximal inhibitory concentration), inhibition of leptin-induced cell growth of VQDDTKTLIKTIVTRINDI-NH2 [Truncated LPA-1 (6-24), T10 (original amino acid)]
25.7 nM

Form field: reported IC50 (half maximal inhibitory concentration), inhibition of leptin-induced cell growth of NVIQISNALENLRDLLHV-NH2 [Truncated LPA-2 (72-89), D79 Ala substitution]
54 nM

Form field: reported IC50 (half maximal inhibitory concentration), inhibition of leptin-induced cell growth of SRNVIQISNDLENLRDLLHVLAFSKS-NH2 [Full-length LPA-2 (70-95)]
33 nM

Form field: reported IC50 (half maximal inhibitory concentration), inhibition of leptin-induced cell growth of IQKVQDDTKTLIKTIVTRINDISHTQSVSSKQ-NH2 [Full-length LPA-1 (3-34)]
39.1 nM
